# System: Trypanosoma brucei
# ASSAY_OVERVIEW: Trypanosoma brucei 72 hour study
# Assay type: functional, organism-based
# Parameters: scale not given: in the data most compounds retested in dose-response had high values
# ASSAY_CONDITIONS: 30 µM; 30.03 µM
In all, about 66,000 compounds went through this assay and about 960 (1.5%) showed an effect of 50% or more. Only a selection was taken, and strong results are over-represented in it overall.
Listing: Percent Effect of selected molecules
VALUE_TYPE: Percent Effect (%)

>>> reported_value("Cc1nc(NC(=O)c2c(-n3cnnn3)sc(C)c2C)sc1C")
-45.39
>>> reported_value("Cc1ccc2[nH]c(-c3cn(C4CCNCC4)nn3)nc2c1C")
-22.65
>>> reported_value("Cc1cccc2[nH]c(-c3cn(C4CCNCC4)nn3)nc12")
-21.72
>>> reported_value("CC(Cn1cccn1)NCc1nc(-c2cccc(Cl)c2)no1 (configuration not stated)")
53.11
>>> reported_value("CC(Cn1cccn1)NCc1nc(-c2cccnc2)no1 (configuration not stated)")
5.913
>>> reported_value("CCCN(CCc1ccccn1)C(=O)CCc1cnn(C)c1")
-34.35
>>> reported_value("O=C(O)C(F)(F)F.O=C(c1cc[nH]n1)N1CCC2(CC1)CC(Oc1cccnc1)CO2 (configuration not stated)")
-3.949
>>> reported_value("Cc1ncc2c(n1)CN(Cc1cccc3c1OCCO3)CC2")
-9.069
>>> reported_value("CCc1nc(NS(=O)(=O)c2ccc(C)cc2Cl)no1")
33.48
>>> reported_value("CC(C)c1ncc2c(n1)CN(Cc1cccc3c1OCCO3)CC2")
65.77
>>> reported_value("O=C(O)c1cc(/C=C/c2ccc3ccccc3c2)ncn1")
17.56
>>> reported_value("CCc1ncc2c(n1)CN(Cc1cccc3c1OCCO3)CC2")
-15.38
